B1: ZNF263 (parent)
chain: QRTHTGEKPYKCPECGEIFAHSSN

Variants of: B1
Assay: protein stability index of a GFP-peptide fusion (GPS, HEK-293T) (PSI 1-6); higher = more stable;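 also: lentivirally expressed fusions sorted by FACS into six bins by GFP to DsRed ratio, PSI derived from sequencing read proportions per bin multiplied by bin number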
Details: c terminus: a fixed tail appended
So basically: protein stability index at 4 or higher? That is true. Lower than 4? That is false.

Hello, I need to know if `E7K` has measured protein stability index not below 4. Thanks! false

Hello, I need to know if `E14R` has measured protein stability index not below 4. Thanks! false

Hello, I need to know if `T3G` has measured protein stability index not below 4. Thanks! true

Hello, I need to know if `T3A` has measured protein stability index not below 4. Thanks! false

Hello, I need to know if `T5G` has measured protein stability index not below 4. Thanks! false

Hello, I need to know if `I18N` has measured protein stability index not below 4. Thanks! false

Hello, I need to know if `Y10Q` has measured protein stability index not below 4. Thanks! false

Hello, I need to know if `P13S` has measured protein stability index not below 4. Thanks! false

Hello, I need to know if `C15P` has measured protein stability index not below 4. Thanks! true

Hello, I need to know if `N24F` has measured protein stability index not below 4. Thanks! false

Hello, I need to know if `G6C` has measured protein stability index not below 4. Thanks! true

Hello, I need to know if `F19Q` has measured protein stability index not below 4. Thanks! false

Hello, I need to know if `K8N` has measured protein stability index not below 4. Thanks! false

Hello, I need to know if `E17H` has measured protein stability index not below 4. Thanks! true

Hello, I need to know if `G16N` has measured protein stability index not below 4. Thanks! false

Hello, I need to know if `A20P` has measured protein stability index not below 4. Thanks! false

Hello, I need to know if `Q1R` has measured protein stability index not below 4. Thanks! false

Hello, I need to know if `C15G` has measured protein stability index not below 4. Thanks! true

Hello, I need to know if `G6Y` has measured protein stability index not below 4. Thanks! false

Hello, I need to know if `A20N` has measured protein stability index not below 4. Thanks! false

Hello, I need to know if `H21V` has measured protein stability index not below 4. Thanks! false

Hello, I need to know if `N24Y` has measured protein stability index not below 4. Thanks! false

Hello, I need to know if `P9M` has measured protein stability index not below 4. Thanks! false

Hello, I need to know if `T5E` has measured protein stability index not below 4. Thanks! false

Hello, I need to know if `A20D` has measured protein stability index not below 4. Thanks! false

Hello, I need to know if `C12D` has measured protein stability index not below 4. Thanks! true

Hello, I need to know if `P13V` has measured protein stability index not below 4. Thanks! false

Hello, I need to know if `T5P` has measured protein stability index not below 4. Thanks! false

Hello, I need to know if `R2H` has measured protein stability index not below 4. Thanks! true

Hello, I need to know if `P13M` has measured protein stability index not below 4. Thanks! false

Hello, I need to know if `C12Q` has measured protein stability index not below 4. Thanks! true

Hello, I need to know if `C15T` has measured protein stability index not below 4. Thanks! true

Hello, I need to know if `E7V` has measured protein stability index not below 4. Thanks! false

Hello, I need to know if `E7Y` has measured protein stability index not below 4. Thanks! false

Hello, I need to know if `P9A` has measured protein stability index not below 4. Thanks! false

Hello, I need to know if `E7F` has measured protein stability index not below 4. Thanks! false

Hello, I need to know if `R2Q` has measured protein stability index not below 4. Thanks! false

Hello, I need to know if `C12M` has measured protein stability index not below 4. Thanks! true

Hello, I need to know if `S22N` has measured protein stability index not below 4. Thanks! false

Hello, I need to know if `C15D` has measured protein stability index not below 4. Thanks! true

Hello, I need to know if `Q1N` has measured protein stability index not below 4. Thanks! false

Hello, I need to know if `H21Q` has measured protein stability index not below 4. Thanks! false

Hello, I need to know if `H21D` has measured protein stability index not below 4. Thanks! false
